system_tested: Adenosine receptor A1 (Rattus norvegicus, UniProt P25099)
Sequence (P25099 whole entry): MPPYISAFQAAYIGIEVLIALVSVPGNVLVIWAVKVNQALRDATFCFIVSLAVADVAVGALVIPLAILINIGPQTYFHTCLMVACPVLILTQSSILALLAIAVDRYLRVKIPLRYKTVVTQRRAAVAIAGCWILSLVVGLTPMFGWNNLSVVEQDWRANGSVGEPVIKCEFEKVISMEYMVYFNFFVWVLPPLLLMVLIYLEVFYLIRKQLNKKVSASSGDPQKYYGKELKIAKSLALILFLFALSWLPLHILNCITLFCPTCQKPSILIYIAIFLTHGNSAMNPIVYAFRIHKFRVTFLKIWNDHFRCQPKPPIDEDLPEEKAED
experiment: Displacement of [3H]-DPCPX from Adenosine A1 receptor in Sprague-Dawley rat whole brain membranes
Parameters: species or system Membrane
quantity_name: Ki (µM)

{"entry_smiles": "CCn1c(COc2ccccc2)nc2c1c(=O)n(C)c(=O)n2C", "Ki [µM]": 1.1}

(I) CCn1c(=O)c2c(nc(CCCc3ccccc3)n2CC)n(CC)c1=O
(II) CCn1c(CCCc2ccccc2)nc2c1c(=O)n(C)c(=O)n2C
Param metric = Ki; output whichever of I , II has the minimum value. Kindly give the label for the entry you pick. I
